target: HIV-1 protease (Human immunodeficiency virus type 1 group M subtype B, UniProt P04585); construct: The genetically engineered target enzyme (HIV-1 protease, preserved at −85° C.); experiment: Anti-HIV-1 protease activity (fluorescence labeled substrate); assay type: biochemical; conditions: sample concentration 50 ug/ml
Structures can show the parent of a compound that is named as a salt.
value_type: inhibition ratio at 50 ug/ml
Numbers only.

For orientation, consider the following solved cases.
{"columns": ["molecule", "inhibition ratio at 50 ug/ml"],
 "data": [
  ["CCOC(=O)c1c(C[S+]([O-])c2ccc(F)cc2)n(C2CC2)c2cc(Br)c(O)c(Cn3ccnc3C)c12 (stereo not drawn) [Example 138]", 12.7],
  ["CCOC(=O)c1c(C[S+]([O-])c2ccccc2)n(C)c2cc(Br)c(O)c(Cn3ccnc3)c12 (stereo not drawn) [Example 116]", 11.1],
  ["CCOC(=O)c1c(C[S+]([O-])c2ccccc2)n(C)c2cc(Br)c(O)c(Cn3ccnc3C)c12 (stereo not drawn) [Example 131]", 7.7],
  ["CCOC(=O)c1c(CS(=O)(=O)c2ccc(F)c(F)c2)n(C2CC2)c2cc(Br)c(O)c(Cn3ccnc3)c12 [Example 160]", 71.8],
  ["CCOC(=O)c1c(C[S+]([O-])c2ccccc2C)n(C)c2cc(Br)c(O)c(CN3CCOCC3)c12 (stereo not drawn) [Example 57]", 15.5]
]}

Return reported inhibition ratio at 50 ug/ml values for all items listed beneath this line.
1. CCOC(=O)c1c(CSc2ccc(F)cc2)n(C2CC2)c2cc(Br)c(O)c(CN3CCN(C)CC3)c12 [Example 19, dihydrochloride]
2. CCOC(=O)c1c(CS(=O)(=O)c2cccc(OC)c2)n(C)c2cc(Br)c(O)c(CN(C)C)c12 [Example 55]

1: 20.7; 2: 30.5

// each listed molecule needs a value for inhibition ratio at 50 ug/ml
1. CCOC(=O)c1c(C[S+]([O-])c2ccc(F)c(F)c2)n(C2CC2)c2cc(Br)c(O)c(CN3CCN(C)CC3)c12 (stereo not drawn) [Example 67, dihydrochloride]
2. CCOC(=O)c1c(CSc2ccc(F)cc2)n(C)c2cc(Br)c(O)c(CN3CCN(C)CC3)c12 [Example 17, dihydrochloride]
3. CCOC(=O)c1c(C[S+]([O-])c2ccc(F)cc2)n(C2CC2)c2cc(Br)c(O)c(CNC(=N)N)c12 (stereo not drawn) [Example 154]
4. CCOC(=O)c1c(C[S+]([O-])c2ccc(F)cc2)n(C)c2cc(Br)c(O)c(CN3CCOCC3)c12 (stereo not drawn) [Example 58]
5. CCOC(=O)c1c(C[S+]([O-])c2ccc(F)cc2)n(C)c2cc(Br)c(O)c(CNC(=N)N)c12 (stereo not drawn) [Example 153]

[0.5, "−17.3", 19.8, 22.9, 24.1]

----------
target: HIV-1 protease (Human immunodeficiency virus type 1 group M subtype B, UniProt P04585); construct: The genetically engineered target enzyme (HIV-1 protease, preserved at −85° C.); experiment: Anti-HIV-1 protease activity (fluorescence labeled substrate); format: biochemical; conditions: sample concentration 250 ug/ml
Structures can show the parent of a compound that is named as a salt.
Each entry gets Criterion not met if its inhibition ratio at 250 ug/ml stays under 80, and Criterion met if its inhibition ratio at 250 ug/ml is 80 or above.

{"columns": ["compound", "experimental_system", "label_value"],
 "data": [
  ["CCOC(=O)c1c(CS(=O)(=O)c2ccc(F)c(F)c2)n(C2CC2)c2cc(Br)c(O)c(Cn3ccnc3)c12 [Example 160]", "HIV-1 protease (Human immunodeficiency virus type 1 group M subtype B, UniProt P04585)", "Criterion met"],
  ["CCOC(=O)c1c(C[S+]([O-])c2ccc(F)cc2)n(C2CC2)c2cc(Br)c(O)c(CNC(=N)N)c12 (centres unmarked) [Example 154]", "HIV-1 protease (Human immunodeficiency virus type 1 group M subtype B, UniProt P04585)", "Criterion met"],
  ["CCOC(=O)c1c(CS(=O)(=O)c2cccc(OC)c2)n(C)c2cc(Br)c(O)c(CN(C)C)c12 [Example 55]", "HIV-1 protease (Human immunodeficiency virus type 1 group M subtype B, UniProt P04585)", "Criterion met"]
]}

Form field: inhibition ratio at 250 ug/ml at least 80? Entry: CCOC(=O)c1c(CSc2ccc(F)cc2)n(C)c2cc(Br)c(O)c(CN3CCN(C)CC3)c12 [Example 17, dihydrochloride]
Criterion not met

Check the entry CCOC(=O)c1c(C[S+]([O-])c2ccc(F)cc2)n(C)c2cc(Br)c(O)c(CNC(=N)N)c12 (centres unmarked) [Example 153] : does inhibition ratio at 250 ug/ml equal or exceed 80?
Criterion not met

Check this compound for inhibition ratio at 250 ug/ml at or above 80: CCOC(=O)c1c(C[S+]([O-])c2ccccc2)n(C)c2cc(Br)c(O)c(Cn3ccnc3C)c12 (centres unmarked) [Example 131]
Criterion not met

Hello, I need to know if CCOC(=O)c1c(C[S+]([O-])c2ccc(F)c(F)c2)n(C2CC2)c2cc(Br)c(O)c(CN3CCN(C)CC3)c12 (centres unmarked) [Example 67, dihydrochloride] has measured inhibition ratio at 250 ug/ml not below 80. Thanks!
Criterion not met

Is it the case that CCOC(=O)c1c(C[S+]([O-])c2ccccc2C)n(C)c2cc(Br)c(O)c(CN3CCOCC3)c12 (centres unmarked) [Example 57] has inhibition ratio at 250 ug/ml reaching or exceeding 80?
Criterion not met
